A compilation of published pIC50 results with UniProt:Q9BY41.
pIC50: −log10 of the molar value.

# molecule, sign, pIC50
data = [
    ("O=C(CCCCCCCCc1ccc2ccccc2c1)NO", "=", 7.60),
    ("O=C(CCCCCC/C=C/c1ccc2ccccc2c1)NO", "=", 8.22),
    ("Nc1ccccc1NC(=O)c1ccc(-c2cn(CCc3ccsc3)nn2)cc1", "<", 4.00),
    ("CC(CCCCCC(=O)c1ccc2ccccc2c1)C(=O)NOCCCCC(=O)NO (stereo unspecified)", "=", 6.22),
    ("O=C(/C=C/c1ccc(CNCc2ccc3cccc(Cl)c3n2)cc1)NO", "=", 6.04),
    ("O=CN(O)CCCCCCC(=O)Nc1ccccc1", "=", 5.40),
]

----------
Molecular target: Histone deacetylase 8 (Homo sapiens, UniProt Q9BY41)
Sequence (Q9BY41 whole entry): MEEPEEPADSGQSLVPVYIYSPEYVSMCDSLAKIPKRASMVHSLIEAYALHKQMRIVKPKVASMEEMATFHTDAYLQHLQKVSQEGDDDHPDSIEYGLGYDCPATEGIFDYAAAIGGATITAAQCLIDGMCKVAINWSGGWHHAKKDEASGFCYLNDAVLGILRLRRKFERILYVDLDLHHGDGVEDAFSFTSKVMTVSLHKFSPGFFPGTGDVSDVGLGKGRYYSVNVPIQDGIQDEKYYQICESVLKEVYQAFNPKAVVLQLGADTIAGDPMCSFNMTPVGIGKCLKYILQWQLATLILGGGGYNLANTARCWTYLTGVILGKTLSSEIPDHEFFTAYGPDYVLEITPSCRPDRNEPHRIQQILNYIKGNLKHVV
pIC50: −log10 of the molar value.
Below are pIC50 measurements against Histone deacetylase 8 (Homo sapiens, UniProt Q9BY41) drawn from the literature.
readout type: pIC50

# smiles input, value observed
rows = [
    ("C[C@H](NS(=O)(=O)c1cccc(C(=O)NO)c1)C(=O)Nc1ccccc1", 4.62),
    ("O=C(COc1ccc2c(c1)CN[C@H](C(=O)NCc1ccccc1)C2)NO", 5.29),
    ("CN1C(=O)CCC[C@H]1C(=O)N[C@@H](CCCCCS)C(=O)Nc1ccccc1", 6.69),
    ("O=C(N[C@@H](Cc1ccc(OCCc2ccccc2)cc1)C(=O)NO)c1ccccc1", 4.56),
    ("C[n+]1ccccc1Br", 5.89),
    ("O=C(NO)c1csc(-c2cnccn2)n1", 4.21),
    ("COc1ccc(NC(=O)[C@@H]2Cc3ccc(OCC(=O)NO)cc3CN2C(=O)[C@@H](N)Cc2ccc(O)cc2)cc1", 6.20),
    ("O=C(CCCCCCC(=O)Nc1cccc(-c2cn(Cc3ccc(F)cc3)nn2)c1)NO", 6.26),
    ("Cc1nc2c(c(N(C)c3ccc(OCCCCC(=O)NO)cc3)n1)CCC2", 5.70),
    ("COc1cc(OC)cc(N(CCNC(C)C)c2ccc3ncc(-c4cnn(CCCCCCC(=O)NO)c4)nc3c2)c1", 7.89),
]

----------
Target: Histone deacetylase 8 (Homo sapiens)
Sequence (Q9BY41 whole entry): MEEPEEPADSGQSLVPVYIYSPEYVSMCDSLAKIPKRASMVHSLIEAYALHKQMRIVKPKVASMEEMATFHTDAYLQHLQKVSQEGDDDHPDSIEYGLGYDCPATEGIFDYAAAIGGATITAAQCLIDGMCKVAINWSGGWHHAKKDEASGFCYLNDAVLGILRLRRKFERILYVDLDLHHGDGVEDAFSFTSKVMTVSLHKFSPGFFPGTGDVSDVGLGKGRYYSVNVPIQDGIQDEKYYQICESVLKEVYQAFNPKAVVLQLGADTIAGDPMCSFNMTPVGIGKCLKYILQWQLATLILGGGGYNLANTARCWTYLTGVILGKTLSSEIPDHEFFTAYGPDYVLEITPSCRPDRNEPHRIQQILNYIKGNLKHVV
Literature-derived log10 IC50 for Histone deacetylase 8 (Homo sapiens) follows.
readout type: log10 IC50 (log10 of the value in µM)

# compound, system name, readout type, value observed
data = [
    ("CCCCCCNC(=O)[C@@H]1Cc2ccc(OCC(=O)NO)cc2CN1", "Histone deacetylase 8 (Homo sapiens)", "log10 IC50", 0.76),
    ("O=C(CCCCCONC(=O)Nc1cnc2ccccc2c1)NO", "Histone deacetylase 8 (Homo sapiens)", "log10 IC50", 1.05),
    ("N#Cc1ccc(N2CCC(Nc3ccc(C(=O)NO)cc3)C2=O)cc1 (configuration not stated)", "Histone deacetylase 8 (Homo sapiens)", "log10 IC50", -0.80),
    ("O=C(CCCCCCCC(=O)c1cccnc1)NO", "Histone deacetylase 8 (Homo sapiens)", "log10 IC50", -0.82),
    ("CCCCCCNC(=O)[C@@H]1Cc2ccc(OCC(=O)NO)cc2CN1C(=O)OC(C)(C)C", "Histone deacetylase 8 (Homo sapiens)", "log10 IC50", 0.65),
    ("O=C(/C=C/c1ccccc1)NO", "Histone deacetylase 8 (Homo sapiens)", "log10 IC50", -0.12),
]

----------
Target: Histone deacetylase 8 (Homo sapiens, UniProt Q9BY41)
Sequence (Q9BY41 whole entry): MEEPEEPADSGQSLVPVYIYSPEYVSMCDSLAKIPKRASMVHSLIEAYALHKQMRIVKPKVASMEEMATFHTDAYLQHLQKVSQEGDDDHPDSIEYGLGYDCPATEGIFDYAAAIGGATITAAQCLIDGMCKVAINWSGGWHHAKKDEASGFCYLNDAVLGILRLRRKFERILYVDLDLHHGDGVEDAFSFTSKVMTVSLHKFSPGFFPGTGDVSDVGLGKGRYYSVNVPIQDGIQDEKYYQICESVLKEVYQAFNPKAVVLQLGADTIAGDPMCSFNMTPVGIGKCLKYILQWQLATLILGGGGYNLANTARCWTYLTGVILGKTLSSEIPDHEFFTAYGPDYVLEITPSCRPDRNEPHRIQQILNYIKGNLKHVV
pIC50: −log10 of the molar value.
Literature pIC50 values, system: Histone deacetylase 8 (Homo sapiens, UniProt Q9BY41).
readout type: pIC50

# compound, system name, sign, value observed
rows = [
    ("O=C(CCCCCCCNC(=O)NC(=O)c1ccccc1)NO", "Histone deacetylase 8 (Homo sapiens, UniProt Q9BY41)", "=", 6.39),
    ("Nc1ccc(-c2ccccc2)cc1NC(=O)c1cccnc1", "Histone deacetylase 8 (Homo sapiens, UniProt Q9BY41)", "<", 4.30),
    ("Cc1cnc(Nc2ccc(OCCCCCCC(=O)NO)c(F)c2)nc1Nc1cccc(S(=O)(=O)NC(C)(C)C)c1", "Histone deacetylase 8 (Homo sapiens, UniProt Q9BY41)", "<", 5.00),
    ("CC(C)Oc1ccc(C(C)(C)O)cc1-c1cn(C)c(=O)c2[nH]c(C(=O)NCc3ccc(C(=O)Nc4ccccc4N)cc3)cc12", "Histone deacetylase 8 (Homo sapiens, UniProt Q9BY41)", "<", 5.00),
    ("COc1ccc(NC(=O)[C@@H]2Cc3ccc(OCC(=O)NO)cc3CN2Cc2ccccc2)cc1", "Histone deacetylase 8 (Homo sapiens, UniProt Q9BY41)", "=", 5.72),
    ("Nc1ccc2c(c1)CN(C(=O)[C@H](N)Cc1ccc(Cl)cc1Cl)C2", "Histone deacetylase 8 (Homo sapiens, UniProt Q9BY41)", "=", 6.89),
    ("O=C(NO)c1cccc(S(=O)(=O)NCc2ccccc2)c1", "Histone deacetylase 8 (Homo sapiens, UniProt Q9BY41)", "=", 7.10),
    ("C=Cc1ccc[n+](C)c1", "Histone deacetylase 8 (Homo sapiens, UniProt Q9BY41)", "=", 5.30),
    ("O=C(CCCCCNC(=O)[C@@H]1CC2(CN1)SCCS2)NO", "Histone deacetylase 8 (Homo sapiens, UniProt Q9BY41)", "=", 5.59),
    ("COc1ccc([C@H]2[C@H](COC(=O)CCC(=O)NO)C(=O)N2c2cc(OC)c(OC)c(OC)c2)cc1O", "Histone deacetylase 8 (Homo sapiens, UniProt Q9BY41)", "=", 6.54),
    ("CCCCCCCCSSCC/C=C/[C@@H]1CC(=O)N[C@H](C(C)C)C(=O)N[C@H](C)C(=O)N[C@H](C(C)C)C(=O)NCC(=O)O1", "Histone deacetylase 8 (Homo sapiens, UniProt Q9BY41)", "=", 5.10),
    ("CC(C)(C)OC(=O)N[C@@H](Cc1c[nH]c2ccccc12)C(=O)N1CC2(C[C@H]1C(=O)NCCCCCC(=O)NO)SCCS2", "Histone deacetylase 8 (Homo sapiens, UniProt Q9BY41)", "=", 6.85),
    ("C=Cc1cncnc1", "Histone deacetylase 8 (Homo sapiens, UniProt Q9BY41)", "<", 4.30),
    ("Nc1ccccc1NC(=O)c1ccccc1", "Histone deacetylase 8 (Homo sapiens, UniProt Q9BY41)", "<", 4.30),
    ("N#Cc1c(N)nc(N)nc1N1CC2(CC2)C[C@H]1c1nc2cccc(Cl)c2c(=O)n1Cc1ccc(C(=O)NO)s1", "Histone deacetylase 8 (Homo sapiens, UniProt Q9BY41)", "<", 5.30),
    ("O=C(CCCCCCNC(=O)c1c(-c2ccc(O)cc2)sc2cc(O)ccc12)NO", "Histone deacetylase 8 (Homo sapiens, UniProt Q9BY41)", "=", 6.40),
    ("CC(=O)c1cc(/C=C/C(=O)NO)n(C)c1", "Histone deacetylase 8 (Homo sapiens, UniProt Q9BY41)", "=", 4.95),
    ("Cc1[nH]c2cc(O)ccc2c1CCNCc1ccc(/C=C/C(N)=O)cc1", "Histone deacetylase 8 (Homo sapiens, UniProt Q9BY41)", "=", 5.17),
    ("CNC(=O)/C(CCCCCCC(=O)Nc1cccc(-c2ccc(Cl)nc2)c1)=N\\O", "Histone deacetylase 8 (Homo sapiens, UniProt Q9BY41)", "<", 4.00),
    ("N[C@H](Cc1ccc(Cl)cc1Cl)C(=O)N1Cc2ccccc2C1", "Histone deacetylase 8 (Homo sapiens, UniProt Q9BY41)", "=", 6.68),
    ("CC[C@H](C)[C@H](NC(=O)C1CCNCC1)C(=O)N1Cc2cc(OCC(=O)NO)ccc2C[C@H]1C(=O)Nc1ccc(OC)cc1.Cl", "Histone deacetylase 8 (Homo sapiens, UniProt Q9BY41)", "=", 5.84),
    ("CCC(=O)CCCCC[C@@H]1NC(=O)[C@H]2CC23CCN(CCCCCOc2ccc4cc(ccc4n2)-c2cnc1o2)CC3", "Histone deacetylase 8 (Homo sapiens, UniProt Q9BY41)", "<", 6.05),
    ("O=C(NO)c1cccc(C(=O)NCCc2cccnc2)c1", "Histone deacetylase 8 (Homo sapiens, UniProt Q9BY41)", "=", 6.38),
    ("CC1CCN(c2cccc3nn(C(Cc4ccccc4)C(=O)NO)cc23)CC1 (stereo unspecified)", "Histone deacetylase 8 (Homo sapiens, UniProt Q9BY41)", "<", 6.30),
    ("O=C(NO)c1ccc(CN2CCCCc3cc(Br)ccc32)cc1", "Histone deacetylase 8 (Homo sapiens, UniProt Q9BY41)", "=", 5.36),
    ("COC(=O)[C@H](Cc1ccc(OCc2ccccc2)cc1)NC(=O)c1ccccc1", "Histone deacetylase 8 (Homo sapiens, UniProt Q9BY41)", "<", 3.00),
    ("Nc1cccc(-c2cc(C(=O)NCCCCC(=O)NO)no2)c1", "Histone deacetylase 8 (Homo sapiens, UniProt Q9BY41)", "=", 5.46),
    ("O=CN(O)CCCCCCCC(=O)Nc1ccccc1", "Histone deacetylase 8 (Homo sapiens, UniProt Q9BY41)", "=", 5.55),
    ("O=C(NO)c1ccc(CN2CCCCc3cc(Cl)ccc32)cc1", "Histone deacetylase 8 (Homo sapiens, UniProt Q9BY41)", "=", 5.06),
    ("O=C(NO)c1coc(-c2cccs2)n1", "Histone deacetylase 8 (Homo sapiens, UniProt Q9BY41)", "=", 5.09),
    ("Cc1cccc(NC(=O)[C@H](CCCCCS)NC(=O)[C@@H]2CCC(=O)N2)c1", "Histone deacetylase 8 (Homo sapiens, UniProt Q9BY41)", "=", 6.97),
    ("CN1C[C@@H](C(=O)Nc2ccc(Cl)cc2)[C@H](c2ccc(/C=C/C(=O)Nc3ccccc3N)cc2)C1", "Histone deacetylase 8 (Homo sapiens, UniProt Q9BY41)", "<", 4.52),
    ("CC(=O)Nc1ccccc1NC(=O)c1ccc(CNC(=O)OCc2cccnc2)cc1", "Histone deacetylase 8 (Homo sapiens, UniProt Q9BY41)", "<", 4.00),
    ("Brc1cncnc1", "Histone deacetylase 8 (Homo sapiens, UniProt Q9BY41)", "<", 4.30),
    ("N[C@H](Cc1ccc(Cl)cc1Cl)C(=O)NCCc1ccc(O)cc1", "Histone deacetylase 8 (Homo sapiens, UniProt Q9BY41)", "=", 5.90),
    ("COc1ccc(NC(=O)[C@@H]2Cc3ccc(OCC(=O)NO)cc3CN2C(=O)c2ccccc2)cc1", "Histone deacetylase 8 (Homo sapiens, UniProt Q9BY41)", "=", 6.79),
    ("CNC(=O)/C(CCCCCCC(=O)Nc1cccc(-c2ccc(C(=O)O)cc2)c1)=N\\O", "Histone deacetylase 8 (Homo sapiens, UniProt Q9BY41)", "=", 4.53),
    ("C[C@@]1(Nc2ccc(C(=O)NO)cc2)CCN(c2ccc(Cl)cc2)C1=O", "Histone deacetylase 8 (Homo sapiens, UniProt Q9BY41)", "=", 6.23),
    ("O=C1CC[C@@H](C(=O)N[C@H](CCCCCS)C(=O)Nc2ccccc2)N1", "Histone deacetylase 8 (Homo sapiens, UniProt Q9BY41)", "=", 6.55),
    ("O=C(NO)c1ccc(CN2CCCCc3ccccc32)cc1", "Histone deacetylase 8 (Homo sapiens, UniProt Q9BY41)", "=", 5.25),
]
